- TEST TARGET: SARS-CoV-2 spike protein S on live virus, Wuhan (strain SARS-CoV-2/Canada/VIDO-01/2020) (SARS-CoV-2 (Wuhan), UniProt P0DTC2 14-1273)
- PROTOCOL NOTES: cell-based or functional assay
ASSAY METRIC: LVNA IC50 (nM)
Give bare numbers, in nM.

BINDER: NRCoV2-MRed04 VHH-Fc (Fc fusion, bivalent VHH-Fc) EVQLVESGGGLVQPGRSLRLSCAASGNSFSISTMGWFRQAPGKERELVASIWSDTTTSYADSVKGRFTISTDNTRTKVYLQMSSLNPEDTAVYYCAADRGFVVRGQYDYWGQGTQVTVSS
LVNA IC50, nM: 9.61

// below: LVNA IC50 requested for another binder
q: Tell me the measured LVNA IC50 of NRCoV2-10 VHH-Fc (Fc fusion, bivalent VHH-Fc) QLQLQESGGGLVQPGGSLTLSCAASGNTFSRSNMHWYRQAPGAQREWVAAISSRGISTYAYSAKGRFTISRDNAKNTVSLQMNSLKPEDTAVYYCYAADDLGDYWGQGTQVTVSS , please.
a: 1.28
